# credit: the Deep4Chem optical property database

assay_summary: solvent given as SMILES
condition_parameters: in CS(C)=O
absorption maximum under 500 nm gets TRUE, anything at or over 500 nm gets FALSE.

Completed entries (count: 3):
CSc1ccc(/C=C/c2cnc3ccccc3n2)cc1 TRUE
COc1cc(OC)cc(C2=C3C(C)=C(I)C(C)=[N+]3[B-](F)(F)n3c(/C=C/c4ccsc4)c(I)c(C)c32)c1 FALSE
CCN(CC)c1ccc2c(c1)oc(=O)c1c(=O)oc3c(OC)cccc3c12 TRUE

Now, please, on to the next molecule.
[ask] is_below(absorption maximum, 500 nm) for CN(C)c1ccc(/C=C/c2cc[n+](CCCCC[n+]3ccc(/C=C/c4ccc(N(C)C)cc4)cc3)cc2)cc1 ?
[reply] TRUE

###

assay_summary: solvent given as SMILES
condition_parameters: in ClC(Cl)Cl
Attribute: absorption maximum
# value in nm; strip the unit string

Notebook: CCN(CC)c1ccc2cc(/C=C/C(O)=C3\CC/C(=C\c4cc5ccc(N(CC)CC)cc5oc4=O)C3=O)c(=O)oc2c1 , absorption maximum read as 525

Item: CN(C)c1ccc2cc(C3=[O+][B-](F)(F)OC(c4ccccc4)=C3)ccc2c1 | absorption maximum: 500

Memo: CCC[Si](CCC)(CCC)c1cc2ccc3cccc4ccc(c1C(=O)NC(C)(C)C)c2c34 , reported absorption maximum: 382

absorption maximum measured on Cc1cccc(C)c1-c1cc2c(C)c3c4ccc5nc6c(ccc7c8c(C)c9cc(-c%10c(C)cccc%10C)c(-c%10c(C)cccc%10C)cc9c(C)c8c76)nc5c4c3c(C)c2cc1-c1c(C)cccc1C = 501

GET /value?item= CN(C)c1ccc(-c2nc(-c3ccccc3)n3ccccc23)cc1 &field=absorption maximum returns 314

Per the records, this compound ( CN(C)c1ccc(/C=C/C=N/N=C/c2ccc3ccc4cccc5ccc2c3c45)cc1 ) has absorption maximum equal to 433

###

assay_summary: solvent given as SMILES
condition_parameters: in C1CCOC1
Give label 1 when the value for absorption maximum is at least 400 nm. Give label 0 when it is less.

Check out these entries, answers already filled in.
molecule	assigned_class
O=S1(=O)C2=C(c3ccc(N(c4ccccc4)c4ccccc4)cc31)C1(C3=C(c4ccccc41)S(=O)(=O)c1cc(N(c4ccccc4)c4ccccc4)ccc13)c1ccccc12	label 1
CCn1c2ccccc2c2cc(-c3cc(-c4ccc5c(c4)c4ccccc4n5CC)nc(-c4ccc(C#N)cc4)n3)ccc21	label 0
CCN1c2ccc(/C=N/Nc3ccccn3)cc2Sc2cc(-c3cccc4ccccc34)ccc21	label 0
C1=Cc2ccccc2C(=Cc2ccc(-c3ccc(C=C4c5ccccc5-c5ccccc54)cc3)cc2)c2ccccc21	label 0
Cc1csc(C)c1C1=C(c2c(C)sc(-c3ccc(-c4nc(-c5ccccc5)c(-c5ccccc5)[nH]4)cc3)c2C)C(F)(F)C(F)(F)C1(F)F	label 0
c1cc2c3c(c1)-c1cccc4ccn(c14)B3n1ccc3cccc-2c31	label 0
N#Cc1cc2ccccc2oc1=O	label 0
CN(C)c1ccc(C(=O)Nc2cccc(Br)c2)cc1	label 0

[ask] Could you tell me if the measured absorption maximum of O=P1(c2ccccc2)C(c2ccccc2)=Cc2ccccc21 (stereo unspecified) reaches 400 nm or more?
[reply] label 0

[ask] I'd appreciate it if you could say whether CCCCCCCCN1c2ccccc2Sc2cc(/C=C/c3ccc(N(c4ccc(/C=C/c5ccc6c(c5)Sc5ccccc5N6CCCCCCCC)cc4)c4ccc(/C=C/c5ccc(/C=C/c6ccc(N(c7ccc(/C=C/c8ccc(N(c9ccccc9)c9ccccc9)cc8)cc7)c7ccc(/C=C/c8ccc(N(c9ccccc9)c9ccccc9)cc8)cc7)cc6)c6nsnc56)cc4)cc3)ccc21 has absorption maximum at least equal to 400 nm.
[reply] label 1

[ask] Identify whether the reported absorption maximum of the following molecule is 400 nm or greater: CSc1nc(-c2ccc(-n3c4ccccc4c4ccccc43)cc2)cc(-c2ccc(-n3c4ccccc4c4ccccc43)cc2)n1
[reply] label 0

[ask] Is reported absorption maximum greater than or equal to 400 nm here: COC1=[N+]2C(=C(c3ccc(C)cc3)c3ccc(OC)n3[B-]2(F)F)C=C1
[reply] label 1

[ask] # check: absorption maximum of F[Si-](F)(c1ccccc1)(c1ccccc1)c1cccc2ccccc12 is greater than or equal to 400 nm
[reply] label 0

[ask] Decide: is the reported value of absorption maximum for CCCCCCCCCCCCOc1cc(C(=O)Nc2ccc(-c3ccc4c(c3)C(=O)c3ccccc3-4)cc2)cc(OCCCCCCCCCCCC)c1OCCCCCCCCCCCC equal to or greater than 400 nm?
[reply] label 1

[ask] Is absorption maximum for CC1=N/C(=C\c2cccc(N(C)C)c2)C(=O)N1CCO at or above 400 nm?
[reply] label 0

###

assay_summary: solvent given as SMILES
condition_parameters: in C1CCOC1
absorption maximum vs 400 nm: at or above is y, below is n.

CCCCCCCC(=O)Oc1ccc2c3cccc4c(OC(=O)CCCCCCC)ccc(c5cccc1c52)c43 y
CCCCOc1ccc2cc(-c3ccc(C)cc3)c(=O)oc2c1 n

[ask] Decide: is the reported value of absorption maximum for CCCCC1(CCCC)c2cc(C#Cc3ccc(C=C(c4ccccc4)c4ccccc4)cc3)ccc2-c2ccc(C#Cc3ccc(C=C(c4ccccc4)c4ccccc4)cc3)cc21 equal to or greater than 400 nm?
[reply] n

[ask] Confirm if absorption maximum reported for the compound N#Cc1c(N2CCCCC2)cc(-c2ccccc2)c2c1Cc1ccccc1-2 is 400 nm or above.
[reply] n

###

Below, each entry is listed with its recorded absorption maximum.
assay_summary: solvent given as SMILES
condition_parameters: in ClCCl

Field: example entries. Status: answers known.
CCN(CC)c1ccc(OC)c(C=O)c1 415 nm
Fc1ccc(-c2cccc3ncc(-c4ccccc4)n23)cc1 336 nm
CC(C)(C)c1ccc(C#Cc2nc(C#Cc3ccc(C(C)(C)C)cc3)c(C#Cc3ccc(C(C)(C)C)cc3)c(C#Cc3ccc(C(C)(C)C)cc3)c2C#Cc2ccc(C(C)(C)C)cc2)cc1 421 nm
CCCSc1ccc2n1[B-](F)(F)[N+]1=CC=CC1=C2c1ccccc1 537 nm
CN(C)c1ccc(/C=C2/N=C(c3ccccc3)OC2=O)cc1 472 nm
COC1=[N+]2C(=C(c3ccccc3)c3ccc(OC)n3[B-]2(F)F)C=C1 515 nm

The reported absorption maximum of the molecule C1=C(c2ccccc2)S[C@]23C1=C(c1ccccc1)[C@H](c1ccccc12)c1ccccc13 was 378 nm

Notebook: COc1cc2c(cc1OC)C1=C[C@H](c3ccc(C)cc3)C3(C(C#N)=C(C#N)N1CC2)c1cc(Cl)ccc1-c1ccc(Cl)cc13 , absorption maximum read as 315 nm

Recorded result, CCCCCCN(CCCCCC)c1ccc(C#Cc2ccc(C#N)cc2)cc1 , absorption maximum: 385 nm

For record COc1cc(OC)cc(C2=CC(c3ccccc3)=C(c3ccccc3)C2)c1 the listed absorption maximum is 355 nm

Lookup result for CCN1/C(=C\c2c(-c3ccc(N(C)C)cc3)c(=O)c2=O)C=Cc2ccccc21 ; measured absorption maximum: 509 nm

Recorded result, COc1ccc(-c2cc(-c3ccc(C)cc3)nc3c(C#N)c(N4CCCC4)nc(N)c23)cc1 , absorption maximum: 422 nm

According to the records, this molecule C1=C(c2ccccn2)[Si](c2ccccc2)(c2ccccc2)c2ccccc21 displays absorption maximum of 339 nm

Given item O=c1c2cccc3cccc(c32)c2nc3cccc4cccc(c43)n12 , the value recorded as its absorption maximum is 475 nm

Measured absorption maximum of O=C1c2cccc3c(NCc4ccccn4)c4ccccc4c(c23)C(=O)N1Cc1ccccn1 : 527 nm

Looking up O=C1CCCC2=C1CC1=C(CCCC1=O)N2NC(=O)c1ccc(O)cc1 , I see its absorption maximum listed as 372 nm

Lab note: measured absorption maximum of CCOC(=O)c1c(-c2cc3c(ccc4ccccc43)oc2=O)nn(-c2cccc(Cl)c2)c1C(=O)OCC was 361 nm

Quick note, absorption maximum for CC(C)[Si](C#Cc1c2nsnc2c(C#C[Si](C(C)C)(C(C)C)C(C)C)c2nc3c4ccccc4c(=O)c4ccccc4c3nc12)(C(C)C)C(C)C landed at 561 nm

For this molecule ( CC(C)[Si]1(C(C)C)c2cc(C=O)ccc2-c2ccc(N(C)C)cc21 ), measured absorption maximum is 397 nm

###

assay_summary: solvent given as SMILES
condition_parameters: in ClCCl
assay_metric: absorption maximum (nm)
Record the value in nm, omitting the unit from your answer.

molecule	absorption maximum, nm
CCCCC(CC)Cn1c2cc(C#N)ccc2c2ccc(C#Cc3ccc4ccc5ccc(C#Cc6ccc7c8ccc(C#N)cc8n(CC(CC)CCCC)c7c6)c6ccc3c4c56)cc21 (stereo not drawn)	447

According to the records, this molecule CCCCC(CC)Cn1c2cc(C#N)ccc2c2ccc(C#N)cc21 (stereo not drawn) displays absorption maximum of 387

###

# absorption maximum values compiled below
assay_summary: solvent given as SMILES
condition_parameters: in C1CCCCC1
Give your result in nm as a bare value.

// solved cases for absorption maximum follow
CC(C)(C)[Si](C)(C)c1cccc2ccccc12 295
CCC1(CC)c2cc(C=O)ccc2-c2ccc(N(C)C)cc21 385

// absorption maximum lookup, compound = Nc1cc(N)cc(-c2nc3ccccc3s2)c1 , result: 360

Reported absorption maximum for CN(C)c1ccc(-c2ccc(-c3cc(N4CCCCC4)c(C#N)c4c3-c3ccccc3CC4)s2)cc1 was 368

Notebook: c1ccc(-c2nc3c(ccc4[nH]ccc43)o2)cc1 , absorption maximum read as 331

Reported absorption maximum of CCCC1(CCC)c2ccccc2-c2ccc(-c3ccc(OC)cc3)cc21 : 315

// field: absorption maximum; key: Cc1ccccc1C ; value = 258.26
